Cited source: patent US20230303540A1

# system.name: GST-tagged truncated human mutant G2019S LRRK2 (Homo sapiens, UniProt Q5S007, G2019S)
# protocol.summary: LRRK2 G2019S Km ATP LanthaScreen assay
# Assay type: biochemical
# condition.label: 134 μM ATP (Km ATP), LRRKtide substrate, mean IC50 values; read-out: LRRK2 pIC50 (converted)
property.measured: IC50 (nM)
Use nM as the unit, but write only the number.

Ask | Entry under review: CC1(n2ncc(Nc3ncc4cc(Cl)c(N5CCn6cnnc6C5)cc4n3)c2Cl)CC1 . Reported IC50?
Reply | 1.27

Ask | Entry under review: CC1(N2CCN(c3cc4nc(Nc5cnn(C6CC6(F)F)c5Cl)ncc4cc3Cl)CC2)COC1 (single isomer, unassigned) [Ex-4.61] . Reported IC50?
Reply | 7.3

Ask | Entry under review: CN(C)c1cc2nc(Nc3cnn(C4CC4(F)F)c3Cl)ncc2cc1Cl (single isomer, unassigned) . Reported IC50?
Reply | 7.37

Ask | Entry under review: CC(=O)N1CCN(c2cc3nc(Nc4cnn(C5CC5)c4Cl)ncc3cc2Cl)CC1 . Reported IC50?
Reply | 7.16

Ask | Entry under review: Cc1c(Nc2cc3cc(N4CCN(C5(C)COCC5O)CC4)c(Cl)cc3cn2)cnn1C1CC1(F)F (single isomer, unassigned) . Reported IC50?
Reply | 0.522

Ask | Entry under review: CC1(Cn2ncc(Nc3ncc4cc(Cl)c(N5CCN(C6(C)COC6)CC5)cc4n3)c2Cl)COC1 . Reported IC50?
Reply | 1.89
